- System: LXFL 529
- protocol.details: NCI tumour cell line growth inhibition, 48 h
Calls of active or inactive are those of the source. Rule as the data show it: active = GI50 up to about 1.1 µM and inactive = higher.
# valid calls are active, inactive; nothing else

- compound: "Cn1c(=O)c2/c(n(C)c1=O)=N\\C=c1\\c(=O)n(C)c(=O)n(C)\\c1=N\\C=2"
  class.assignment: "inactive"
- compound: "COc1ccc(CNc2nc3c(NC(C)=O)cc(C(F)(F)F)cc3nc2-c2ccccc2)cc1OC"
  class.assignment: "inactive"
- compound: "COc1cc(C(O)C(=O)c2nc3ccc([N+](=O)[O-])cc3nc2O)ccc1O (stereo unspecified)"
  class.assignment: "inactive"

## Input Call for entry COc1cccc2c1C(=O)c1c(O)c3c(c(O)c1C2=O)C[C@@](O)(C(=O)CO)CC3OC1CC(NCCCC(OC(C)=O)OC(C)=O)C(O)C(C)O1 (stereo partly specified) :
## Output active
